METHOD: physchem
RESULT TYPE: solubility

Name the reported solubility value associated with the compound CC(O)C(=O)[O-].CC(O)C(=O)[O-].O=C([O-])c1ccccc1O.[Ti+3] [Ti^IV/III(lactate)2(salicylate), titanium bis-lactate mono-salicylate]
≥ 1500 mM
